For each of the compounds below, state its NF-kB reporter.
# System: RAW-Dual (murine macrophage reporter line)
# METHOD_SUMMARY: NF-kB reporter (SEAP) activity fold change vs agonist alone; higher = enhanced NF-kB activity
# STUDY_CONDITIONS: modulator concentration 10 µM; agonist: LPS 0.1 ug/mL
Form: value (number only, do not type unit).

### Prompt Return reported NF-kB reporter; argument: `O=C(OCCO)c1cc(Cl)c(C(=O)OCCO)cc1Cl`
### Response 1

### Prompt Record: `CC(C)(C)n1cnc2cc(N=Cc3ccc(Cl)cc3)ccc21`
### Response 1.01

### Prompt Now this one: NC(=O)c1ncn(C2OC(CO)C(O)C2O)c1O (configuration not stated)
### Response 0.895

### Prompt Same question, `Cc1nn2c(=O)c(Cc3ccccc3)c(C)[nH]c2c1-c1ccccc1` this time
### Response 0.878

### Prompt Check `O=C(CC1(Cc2ccc(I)cc2)C(=O)c2ccccc2C1=O)c1ccccc1` too.
### Response 0.876

### Prompt Now give it for `O=C(NCCCO)C(=O)Nc1ccccc1F` too.
### Response 0.894

### Prompt COc1cc2c(cc1OC)C1C(=O)c3ccc4c(c3OC1CO2)C=CC(C)(C)O4 (configuration not stated) ?
### Response 0.99

### Prompt Also need CCC(=O)Nc1ccc(S(=O)(=O)N2CCCC(Cc3nc(C4CC4)no3)C2)c(C)c1 (configuration not stated) , thanks.
### Response 0.986

### Prompt Proceed to Nc1ncnc2c1ncn2C1CC(O)C(CO)O1 (configuration not stated)
### Response 0.875

### Prompt Let us now turn to `O=C(O)c1cc(O)c(O)c(O)c1`
### Response 0.876

### Prompt Also check `COc1ccccc1-c1noc(C2CN(S(=O)(=O)N(C)C)C2)n1`
### Response 0.982

### Prompt And then CN1c2ccccc2-c2ccccc2C12C=Cc1cc([N+](=O)[O-])ccc1O2 (configuration not stated) , what is it?
### Response 0.916

* * *

# Tested on: RAW-Dual (murine macrophage reporter line)
# METHOD_SUMMARY: NF-kB reporter (SEAP) activity fold change vs agonist alone; higher = enhanced NF-kB activity
# STUDY_CONDITIONS: modulator concentration 10 µM; agonist: CpG ODN 1826 0.5 ug/mL
QUANTITY_NAME: NF-kB reporter
Keep it simple and answer with nothing but the number.

### Prompt Form: Entry = `Cc1ccc(C(C)C)c(Oc2ccccc2NC(=O)c2cc(I)cc(I)c2O)c1` | System = RAW-Dual (murine macrophage reporter line) | NF-kB reporter = ____
### Response 0.995

### Prompt // repeat for `O=C(NCCN1CCN(c2ccc(Cl)cc2)CC1)c1ccncc1` and report
### Response 0.974

### Prompt Consider next the molecule `CCCCN(CCCC)S(=O)(=O)c1ccc(N2CCCC2=O)c([N+](=O)[O-])c1` in the same way.
### Response 1.02

### Prompt Input `O=C(O)c1nn(-c2ccccc2)c(=O)c2ccccc12`
### Response 1.12

### Prompt Another molecule: COC(=O)C(NC(=O)C(C)(C)C)C12CC3CC(CC(C3)C1)C2 (stereo not given)
### Response 0.96

### Prompt What about this molecule? `O=C(O)C=C(CC(=O)O)C(=O)O`
### Response 1.02

### Prompt Same read-out for `O=S1(=O)N=C(SCc2ccccc2)Nc2ccc(Cl)cc21` ?
### Response 0.76

### Prompt Field entry: CC(=Cc1ccccc1)CN1CC(C)OC(C)C1 (stereo not given)
### Response 0.788

### Prompt Same lookup for `O=C(Oc1ccc2oc(=O)sc2c1)c1ccccc1` , please.
### Response 0.969

### Prompt Also, C=CC(C)(O)CCC=C(C)C (stereo not given) please.
### Response 0.988

### Prompt Try the molecule CN(C)CCC(c1ccc(Cl)cc1)c1ccccn1.O=C(O)/C=C\C(=O)O (stereo not given)
### Response 1.02

### Prompt Same again, this time with `CCCc1cc(=O)[nH]c(=S)[nH]1`
### Response 1.37

### Prompt Query COc1cc2nc(N(C)CCCNC(=O)C3CCCO3)nc(N)c2cc1OC.Cl (stereo not given) next
### Response 0.585

### Prompt Please answer likewise for `CC[C@H](C)C(=O)O[C@H]1CCC=C2C=C[C@H](C)[C@H](CC[C@@H]3C[C@@H](O)CC(=O)O3)[C@H]21`
### Response 1.34

### Prompt Note, next up: `O=c1n(CCNS(=O)(=O)Cc2ccccc2)nc(C2CC2)n1-c1ccccc1`
### Response 1.03

### Prompt Then this molecule: `c1ccc(CSc2nnc(-c3cccnc3)o2)nc1`
### Response 0.986

### Prompt Can you handle `COc1cccc(C=NNc2nnc(C)c(=O)[nH]2)c1OC` next?
### Response 0.888

### Prompt And then `CCNc1nc(S)nc(NC(C)C)n1` , what is it?
### Response 1.13

### Prompt Try this molecule next: `CC(=O)N1CC(C(=O)Nc2cccc(Br)c2)C1`
### Response 1.11

### Prompt Can you check `O=C(CSc1ccc2ccccc2n1)NC1=NCCS1` next?
### Response 0.89

### Prompt What about O=S1(=O)CCC(NCc2ccccc2C(F)(F)F)C1 (stereo not given) ?
### Response 0.997

### Prompt Next molecule: O=C(Nc1ccccc1)NC1CCS(=O)(=O)C1 (stereo not given)
### Response 1.02

### Prompt And Br.CN(C)CCCC1(c2ccc(F)cc2)OCc2cc(C#N)ccc21 (stereo not given) ?
### Response 0.81

### Prompt Now the same for `O=C(CCN1C(=O)c2cccc([N+](=O)[O-])c2C1=O)Nc1ccc(F)cc1`
### Response 1.01

### Prompt # repeat for `CN(C)CC/C=C1\c2ccccc2COc2ccccc21.Cl`
### Response 0.888
